Test system: L1210
Assay: cells
Format: cell-based, mouse
Details: Table 2
valueType: pIC50
By convention, pIC50 is the negative base-10 log of a molar concentration.

Example cases with answers are listed next.
>  <molecule>
CC[C@]1(NC(=O)c2cccc(N3CCOCC3)c2)C[C@H]2CN(CCc3c([nH]c4ccccc34)[C@@](C(=O)OC)(c3cc4c(cc3OC)N(C)[C@H]3[C@@](O)(C(=O)OC)[C@H](OC(C)=O)[C@]5(CC)C=CCN6CC[C@]43[C@@H]65)C2)C1 [Compound 106]

>  <pIC50>
8.32

$$$$
>  <molecule>
CCC1(NC(=O)c2cccc(OC)c2)CC2CN(CCc3c([nH]c4ccccc34)C(C(=O)OC)(c3cc4c(cc3OC)N(C)C3C(O)(C(=O)OC)C(OC(C)=O)C5(CC)C=CCN6CCC43C65)C2)C1 (stereo not shown) [Compound 68]

>  <pIC50>
9.22

$$$$
>  <molecule>
CCC1(NC(=O)c2cc(C)c(OC)c(C)c2)CC2CN(CCc3c([nH]c4ccccc34)C(C(=O)OC)(c3cc4c(cc3OC)N(C)C3C(O)(C(=O)OC)C(OC(C)=O)C5(CC)C=CCN6CCC43C65)C2)C1 (stereo not shown) [Compound 99]

>  <pIC50>
9.30

$$$$

Shift focus to the following entry.
q: # input molecule: CC[C@]1(NC(=O)c2cc(C)cc(C)c2)C[C@H]2CN(CCc3c([nH]c4ccccc34)[C@@](C(=O)OC)(c3cc4c(cc3OC)N(C)[C@H]3[C@@](O)(C(=O)OC)[C@H](OC(C)=O)[C@]5(CC)C=CCN6CC[C@]43[C@@H]65)C2)C1 [Compound 29] ; wanted: its pIC50
a: 8.27
